- Measured Target: androgen receptor (AR) (Homo sapiens, UniProt P10275, T878A)
- Construct: endogenous in cells; host or cells: LNCAP
- Sequence (P10275 whole entry T878A): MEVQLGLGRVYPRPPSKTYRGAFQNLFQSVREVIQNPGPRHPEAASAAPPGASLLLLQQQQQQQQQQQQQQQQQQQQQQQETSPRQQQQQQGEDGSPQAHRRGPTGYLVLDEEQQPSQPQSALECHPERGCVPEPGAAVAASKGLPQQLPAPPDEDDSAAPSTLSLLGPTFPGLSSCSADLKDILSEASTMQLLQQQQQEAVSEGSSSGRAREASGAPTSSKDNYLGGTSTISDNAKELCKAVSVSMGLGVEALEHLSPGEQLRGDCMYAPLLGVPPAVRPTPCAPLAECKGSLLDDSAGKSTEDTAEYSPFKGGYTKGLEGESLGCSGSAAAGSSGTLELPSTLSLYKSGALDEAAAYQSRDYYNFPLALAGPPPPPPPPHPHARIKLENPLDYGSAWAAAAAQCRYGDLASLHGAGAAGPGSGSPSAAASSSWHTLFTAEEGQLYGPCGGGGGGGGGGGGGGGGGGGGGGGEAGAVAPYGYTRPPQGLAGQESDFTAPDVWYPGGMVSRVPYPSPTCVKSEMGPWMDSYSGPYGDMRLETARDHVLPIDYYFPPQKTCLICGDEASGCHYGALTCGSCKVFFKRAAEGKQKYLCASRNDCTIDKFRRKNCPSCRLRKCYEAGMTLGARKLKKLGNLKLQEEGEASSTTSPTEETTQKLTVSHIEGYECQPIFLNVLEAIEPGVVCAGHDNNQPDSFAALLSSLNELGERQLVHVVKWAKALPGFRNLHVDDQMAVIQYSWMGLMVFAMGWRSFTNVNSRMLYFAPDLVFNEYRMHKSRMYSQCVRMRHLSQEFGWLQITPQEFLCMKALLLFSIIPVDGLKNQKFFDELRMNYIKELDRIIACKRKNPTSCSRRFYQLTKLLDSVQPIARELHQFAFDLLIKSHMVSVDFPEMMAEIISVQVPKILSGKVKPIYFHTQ
- Assay Method Text: AR degradation activity in LNCAP cells (Western blot)
- Assay type: cell-based
- Cond: LNCAP cell line, 24 hours after administration; DC50 = concentration for 50% target protein degradation
Measure: DC50 (nM)

Completed entries (count: 3):
{"Compound": "CC(C)N(CC1CCN(c2ccc(C(=O)NC3C(C)(C)C(Oc4ccc(C#N)c5ncccc45)C3(C)C)cn2)CC1)C1CC(Oc2ccc3c(c2)C(=O)N(C2CCC(=O)NC2=O)C3=O)C1 (stereo not drawn)", "Val": 2.8}
{"Compound": "CC1(C)C(NC(=O)c2ccc(N3CCC(CN4CCN(c5cc6c(cc5F)C(=O)N(C5CCC(=O)NC5=O)C6=O)CC4)CC3)cc2)C(C)(C)C1Oc1ccc(C#N)c2ncccc12 (stereo not drawn)", "Val": 0.8}
{"Compound": "CC1(C)[C@H](NC(=O)c2cnc(N3CCC(CN4CCN(c5ccc6c(c5)CN([C@H]5CCC(=O)NC5=O)C6=O)CC4)CC3)nc2)C(C)(C)[C@H]1Oc1ccc(C#N)c2ncccc12", "Val": 0.2}

a. CC1(C)C(NC(=O)c2ccc(N3CCC(CN4CCN(c5cc6c(cc5F)C(=O)N(C5CCC(=O)NC5=O)C6=O)CC4)CC3)c(F)c2)C(C)(C)C1Oc1ccc(C#N)c2ncccc12 (stereo not drawn)
b. CC1(C)C(NC(=O)c2ccc(N3CCC(CN4CCN(c5ccc6c(c5)CN([C@H]5CCC(=O)NC5=O)C6=O)CC4)CC3)c(F)c2)C(C)(C)C1Oc1ccc(C#N)c2ncccc12 (stereo partly drawn)
c. CC1(C)C(NC(=O)c2cnc(N3CCC(CN4CCN(c5cc6c(cc5F)C(=O)N(C5CCC(=O)NC5=O)C6=O)CC4)CC3)c(F)c2)C(C)(C)C1Oc1ccc(C#N)c2ncccc12 (stereo not drawn)
Output the entries ranked by DC50 from maximum down to minimum. Give your ranking as a list of the labels in the requested order.
a, c, b
(a: 3.8 nM, c: 1.3 nM, b: 0.1 nM)

---

- Measured Target: androgen receptor (AR) (Homo sapiens, UniProt P10275)
- Construct: endogenous in cells; host or cells: VCAP
- Sequence (P10275 whole entry): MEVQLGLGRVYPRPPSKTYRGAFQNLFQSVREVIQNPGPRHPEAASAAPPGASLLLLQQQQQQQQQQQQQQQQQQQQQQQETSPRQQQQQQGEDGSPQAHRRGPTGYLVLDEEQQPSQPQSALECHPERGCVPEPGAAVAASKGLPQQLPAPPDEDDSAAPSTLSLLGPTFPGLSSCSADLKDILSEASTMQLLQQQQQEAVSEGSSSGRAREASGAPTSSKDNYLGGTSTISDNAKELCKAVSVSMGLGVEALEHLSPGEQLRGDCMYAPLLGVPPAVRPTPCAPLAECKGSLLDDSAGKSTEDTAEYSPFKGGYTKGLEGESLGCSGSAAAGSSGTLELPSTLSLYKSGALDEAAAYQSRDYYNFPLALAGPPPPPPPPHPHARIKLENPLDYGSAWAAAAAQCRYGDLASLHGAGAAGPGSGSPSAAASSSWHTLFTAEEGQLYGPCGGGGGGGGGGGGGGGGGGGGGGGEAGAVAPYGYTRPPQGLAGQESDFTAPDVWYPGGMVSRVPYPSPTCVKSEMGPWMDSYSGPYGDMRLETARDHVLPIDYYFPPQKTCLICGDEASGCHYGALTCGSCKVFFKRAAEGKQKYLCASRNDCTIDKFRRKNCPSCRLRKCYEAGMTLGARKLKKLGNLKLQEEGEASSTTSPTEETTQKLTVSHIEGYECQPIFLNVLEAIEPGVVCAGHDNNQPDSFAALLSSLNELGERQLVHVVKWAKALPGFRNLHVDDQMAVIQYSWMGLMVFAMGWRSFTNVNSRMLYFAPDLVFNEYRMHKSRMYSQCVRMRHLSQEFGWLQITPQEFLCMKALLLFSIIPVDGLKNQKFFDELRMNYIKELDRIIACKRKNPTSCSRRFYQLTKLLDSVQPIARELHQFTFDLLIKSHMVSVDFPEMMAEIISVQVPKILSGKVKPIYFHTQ
- Assay Method Text: AR degradation activity in VCAP cells (Western blot)
- Type: cell-based
- Cond: VCAP cell line, 24 hours after administration; DC50 = concentration for 50% target protein degradation
Measure: DC50 (nM)

{"Compound": "CC1(C)[C@H](NC(=O)c2ccc(N3CCC(CN4CCN(c5ccc6c(c5)C(=O)N(C5CCC(=O)NC5=O)C6=O)CC4)CC3)c(F)c2)C(C)(C)[C@H]1Oc1ccc(C#N)c2ncccc12 (stereo partly drawn) [Compound 2-22]", "Measure": "DC50", "Val": 1.7}

A. CC1(C)C(NC(=O)c2ccc(N3CCC(CCN4CCN(c5ccc6c(c5)C(=O)N(C5CCC(=O)NC5=O)C6=O)CC4)CC3)cc2)C(C)(C)C1Oc1ccc(C#N)c2ncccc12 (stereo not drawn) [Compound 2-43]
B. CC1(C)C(NC(=O)c2ccc(N3CCC(CN4CCN(c5ccc6c(c5)CN([C@H]5CCC(=O)NC5=O)C6=O)CC4)CC3)c(F)c2)C(C)(C)C1Oc1ccc(C#N)c2ncccc12 (stereo partly drawn) [Compound 2-32]
// task: argmin of DC50 over [ A , B ] Please indicate the selected item by its label.
B

Attribution: patent US11312702B2
